- test.method.notes: intrinsic fluorescence of library compounds, ex339/em460 – biochemical, MLSMR library, data from DPM-DC assay, artefact control, profiling panel (AID 709);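 note: signal is the first read of a kinetic run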
- experimental.conditions: compound autofluorescence, ex339/em460 nm, NADH buffer; at 10 µM; stronger effect = higher value; 1 = no-compound wells, NADH background
Among all 65,000 compounds or so, about 3,600 (5.5%) were called active. Only a selection was taken, and actives are over-represented in it overall.
Quick reference for fluorescence fold increase among some compounds

These recorded examples may help you get a feel for the data.
compound: CCCc1cc(=O)oc2c(C)c(O)c(CN3CCCCC3)cc12
fluorescence fold increase: 2.34 (active)
--
compound: C=CCn1c(C(C)NC(=O)CC)nc2ccccc21 (stereo unspecified)
fluorescence fold increase: 1.1 (inactive)
--
compound: CCCn1c(=NC(C)=O)c(C(=O)OCC)cc2c(=O)n3ccccc3nc21
fluorescence fold increase: 3.86 (active)
--
compound: C=CCn1c(N)c(C(=O)OCC(C)C)c2nc3ccccc3nc21
fluorescence fold increase: 3.79 (active)
--
compound: COc1ccc(S(=O)(=O)N2CCCC2)c(C)c1C
fluorescence fold increase: 1.06 (inactive)

Field: next compound
Req: Could you please provide reported fluorescence fold increase for "CC(=O)Nc1ccc(S(=O)(=O)Nc2ccc(N3CCOCC3)c(F)c2)cc1" ? Thanks!
Resp: 1.1 (inactive)

* * *

- test.method.notes: intrinsic fluorescence of library compounds, ex339/em460 – biochemical, MLSMR library, data from DPM-DC assay, artefact control, profiling panel (AID 709);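 note: signal is the first read of a kinetic run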
- experimental.conditions: compound autofluorescence, ex339/em460 nm, NADH buffer; at 10 µM; 1 = no-compound wells, NADH background
About 3,600 (5.5%) of roughly 65,000 compounds were called active.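 Rule for the calls: active = at 10 µM, mean starting fluorescence two-fold or more over control wells; inactive = the rest.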 Only a selection was taken, and actives are over-represented in it overall.
Permitted responses: Y (active), N (inactive)

compound: CN1C(=O)c2ccc(NC(=O)C3CCCCC3)cc2C1=O
class.assignment: Y

compound: O=C(NC12CC3CC(CC(C3)C1)C2)N1CCCC(CO)C1 (centres undefined)
class.assignment: N

compound: COc1ccc(-c2noc(-c3cccc(OC)c3OC)n2)cc1OC
class.assignment: N

compound: CCOc1ccccc1-n1c(SCC(=O)N2CCCC2)nnc1-c1ccoc1C
class.assignment: N

compound: CCc1nnc(NC(=O)CSc2nnc(COc3ccc(C#N)cc3)n2-c2ccccc2)s1
class.assignment: N

Req: // return assay outcome for "Nc1ncc(-c2cc3ccccc3oc2=O)s1"
Resp: N

Req: Returns: the outcome recorded for "Fc1ccc2[nH]c3c(N4CCN(Cc5ccc6c(c5)OCO6)CC4)ncnc3c2c1" in this assay.
Resp: N

Req: Called result for "COc1ccc(CCN(Cc2cc3cccc(C)c3[nH]c2=O)C(=O)N2CCCC2)cc1OC"
Resp: N

Req: What did this assay record as the result for "CCOc1ccc2nc(NC(=O)CSc3nc4c(c(=O)n(C)c(=O)n4C)n3CC)sc2c1" ?
Resp: N

Req: Field: outcome | Entry: "O=P(O)(CP(=O)(c1ccccc1)c1ccccc1)c1ccccc1"
Resp: N

* * *

- test.method.notes: intrinsic fluorescence of library compounds, ex339/em460 – biochemical, MLSMR library, data from DPM-DC assay, artefact control, profiling panel (AID 709);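 note: signal is the first read of a kinetic run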
- experimental.conditions: compound autofluorescence, ex339/em460 nm, NADH buffer; at 10 µM; stronger effect = higher value; 1 = no-compound wells, NADH background
Out of some 65,000 compounds screened, about 3,600 (5.5%) were called active. Many of the other results were omitted from the sample, so actives are more common in it than they were.
Recorded fluorescence fold increase, one value per entry.
Format: numeric value only, no unit, no commentary.

These solved cases illustrate the format of a correct answer.
compound: CCC(CC)c1nnc(NS(=O)(=O)Cc2ccccc2)s1
assay.value: 1.09
//
compound: CCCCC(=O)Nc1ccc2c(c1)C(=O)NC2=O
assay.value: 2.11
//
compound: CSc1nc(O)c(Cc2ccccc2)c(=O)[nH]1
assay.value: 1.07
//
compound: Cc1cc(C)nc(NC(=O)C(C)N2C(=O)c3ccccc3C2=O)n1 (configuration not stated)
assay.value: 1.09
//
compound: Cc1cccc(NC(=O)CN2CCCN(S(=O)(=O)c3ccc(Br)s3)CC2)c1
assay.value: 1.1
//
compound: Fc1cc(F)c2nc(N3CCOCC3)sc2c1
assay.value: 1.07
//
compound: CN1CCN(Cc2nc3c(c(=O)n(C)c(=O)n3C)n2Cc2cccc3ccccc23)CC1
assay.value: 1.12
//
compound: CCCC(C(=O)NCc1ccco1)N(C(=O)CNS(=O)(=O)c1ccccc1)C1CCCC1 (configuration not stated)
assay.value: 1

Req: Using known records, supply fluorescence fold increase for COc1ccc(-c2[nH]nc3c2C(c2ccncc2)C(C#N)=C(N)O3)cc1 (configuration not stated)
Resp: 1.04

Req: Please report the measured fluorescence fold increase for "CCOC(=O)c1c(C)n(C)c2ccc(OC)c(NC(=O)CN3CCC4(CC3)OCCO4)c12"
Resp: 1.04

Req: Report fluorescence fold increase, nothing else, for this compound: "CCCCC(=O)Nc1ccc(C(=O)NCCCn2ccnc2)cc1"
Resp: 1.13

Req: State its fluorescence fold increase for this compound: "Cn1c(=O)[nH]c(=O)c2c1nc(Br)n2CCCCSc1nc2ccccc2o1"
Resp: 1.1

* * *

Catalogue of fluorescence fold increase values
- test.method.notes: intrinsic fluorescence of library compounds, ex339/em460 – biochemical, MLSMR library, data from DPM-DC assay, artefact control, profiling panel (AID 709);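 note: signal is the first read of a kinetic run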
- experimental.conditions: compound autofluorescence, ex339/em460 nm, NADH buffer; at 10 µM; stronger effect = higher value; 1 = no-compound wells, NADH background
The whole screen tested about 65,000 compounds, of which about 3,600 (5.5%) were called active. Many of the other results were omitted from the sample, so actives are more common in it than they were.
Write the number on its own, no unit after it.

compound: CCOC(=O)c1[nH]cnc1C(=O)NC1CCCCC1
fluorescence fold increase: 1.07

compound: CC(C)(C)NC(=O)C(c1ccco1)N(Cc1ccc2c(c1)OCO2)C(=O)Cn1nnc2ccccc21 (stereo unspecified)
fluorescence fold increase: 1.1

compound: CCOc1ccc2[nH]c(=O)c(C(c3nnnn3CCOC)N3CCOCC3)cc2c1 (stereo unspecified)
fluorescence fold increase: 5.03

compound: CCOC(=O)C1CCN(C(=O)c2oc3ccc(S(=O)(=O)N4CCCCCC4)cc3c2C)CC1
fluorescence fold increase: 1.08

compound: CCCC(=O)N(CCc1ccccc1)Cc1nc2ccccc2c(=O)[nH]1
fluorescence fold increase: 1.13

compound: CCCCC(=O)N1CC2(C)CN(C(=O)CCCC)CC(C)(C1)C2=O
fluorescence fold increase: 1.09

compound: Cc1noc(COc2ccccc2OCC(O)CNC(C)(C)C)n1 (stereo unspecified)
fluorescence fold increase: 1.04

compound: Cc1occc1C(=O)Nc1cccc(Cn2cccn2)c1
fluorescence fold increase: 1.14

Req: Please indicate fluorescence fold increase recorded for "Cc1cc(N2C(=O)c3ccc(C(=O)NCc4ccccc4)cc3C2=O)no1"
Resp: 1.1

Req: Fill in reported fluorescence fold increase for this entry: CCCOP(=O)(c1ccc(N(C)C)cc1)C(O)c1cc(OC)c(OC)c(OC)c1 (stereo unspecified)
Resp: 1.13

Req: Check the records and state fluorescence fold increase for "CCOC(=O)N1CCN(C(=O)c2cc3c(-c4ccc(Cl)cc4)nn(C)c3s2)CC1"
Resp: 1.19

Req: Quick one: give measured fluorescence fold increase for "CS(=O)(=O)N1CCN(C(=O)c2cc3ccccc3oc2=O)CC1"
Resp: 1.14

Req: Indicate the recorded fluorescence fold increase value for this compound: "Cc1nonc1NC(=O)c1ccccc1Br"
Resp: 1.01

* * *

- test.method.notes: intrinsic fluorescence of library compounds, ex339/em460 – biochemical, MLSMR library, data from DPM-DC assay, artefact control, profiling panel (AID 709);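 note: signal is the first read of a kinetic run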
- experimental.conditions: compound autofluorescence, ex339/em460 nm, NADH buffer; at 10 µM; stronger effect = higher value; 1 = no-compound wells, NADH background
Hit rate of the full screen: of about 65,000 compounds, about 3,600 (5.5%) were called active. The sample as a whole holds a higher share of actives than the screen did.
Catalogue of fluorescence fold increase readings, one per entry.
Lab note: write the figure by itself, no unit.

Consider the worked cases shown below.
molecule: CCc1ccc2oc(-c3ccc(N)cc3)nc2c1
assay.endpoint: fluorescence fold increase
assay.value: 2.12
--
molecule: Cn1c(=O)c2c(nc(OCc3cccnc3)n2Cc2ccccc2)n(C)c1=O
assay.endpoint: fluorescence fold increase
assay.value: 1.09
--
molecule: CC1=Nn2c(nnc2-c2ccccc2)SC1
assay.endpoint: fluorescence fold increase
assay.value: 1
--
molecule: COc1ccc2c(c1OC)C(=O)OC2c1c(O)nc(SC)n(-c2ccccc2)c1=O (stereo not drawn)
assay.endpoint: fluorescence fold increase
assay.value: 1.06
--
molecule: CCCC(=O)N=c1sc2cccc(F)c2n1C
assay.endpoint: fluorescence fold increase
assay.value: 1.09

Req: For the molecule "O=C(Oc1cccnc1)c1cc2ccccc2oc1=O" , give its measured fluorescence fold increase value.
Resp: 1.24

Req: # return recorded fluorescence fold increase for input "Cc1nn(-c2ccccc2)c2c1C(=O)NC(=O)C(C)(C)C2"
Resp: 1.03

Req: Recall and state the measured fluorescence fold increase for "COc1nc(Oc2ccc(=O)n(C)n2)nc(N(C)C)n1" .
Resp: 1.04
